- Measured target: Nucleoside diphosphate kinase B (Homo sapiens)
- Sequence (P22392 whole entry): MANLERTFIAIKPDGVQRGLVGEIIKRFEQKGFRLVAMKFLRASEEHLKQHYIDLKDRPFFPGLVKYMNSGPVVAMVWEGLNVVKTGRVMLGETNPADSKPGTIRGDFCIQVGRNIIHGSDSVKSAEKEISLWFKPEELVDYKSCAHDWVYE
- Experiment summary: Binding affinity to NT647-labeled His-tagged NM23-H2 (unknown origin) expressed in Escherichia coli BL21(DE3) up to 500 uM after 30 mins by microscale thermophoresis method
Activity calls are given as the source filed them. The rule behind the calls is not given here.
Possible outcomes: TRUE = active, FALSE = inactive

                                 cpd_smiles                           measured_target  discrete_label
0  CN1CCN(c2cc3nc4n(c(=O)c3cc2F)CCC/C4=C\c2ccc(NC(=O)CCN3CCN(CCO)CC3)cc2)CC1  Nucleoside diphosphate kinase B (Homo sapiens)            TRUE
1  CN1CCN(c2cc3nc4n(c(=O)c3cc2F)CCC/C4=C\c2ccc(NC(=O)CN3CCN(CCO)CC3)cc2)CC1  Nucleoside diphosphate kinase B (Homo sapiens)            TRUE
2  CN1CCN(c2cc3nc4n(c(=O)c3cc2F)CC/C4=C\c2ccc(NC(=O)CN3CCN(CCO)CC3)cc2)CC1  Nucleoside diphosphate kinase B (Homo sapiens)            TRUE
3  CN(C)CCNC(=O)c1ccc(/C=C2\CCn3c2nc2cc(N4CCN(C)CC4)c(F)cc2c3=O)cc1  Nucleoside diphosphate kinase B (Homo sapiens)            TRUE
4  CN1CCN(c2cc3nc4n(c(=O)c3cc2F)CC/C4=C\c2ccc(NC(=O)CN3CCCC3)cc2)CC1  Nucleoside diphosphate kinase B (Homo sapiens)            TRUE
5  O=C(CCN1CCCC1)Nc1ccc(/C=C2\CCn3c2nc2cc(NC(=O)CCN4CCCC4)ccc2c3=O)cc1  Nucleoside diphosphate kinase B (Homo sapiens)           FALSE

Data provenance: ChEMBL document CHEMBL3997802
